The reported numbers originate from paper PMC7307922.

target: hFFA3 (Homo sapiens); assay: cell-based
Sequence (O14843 whole entry): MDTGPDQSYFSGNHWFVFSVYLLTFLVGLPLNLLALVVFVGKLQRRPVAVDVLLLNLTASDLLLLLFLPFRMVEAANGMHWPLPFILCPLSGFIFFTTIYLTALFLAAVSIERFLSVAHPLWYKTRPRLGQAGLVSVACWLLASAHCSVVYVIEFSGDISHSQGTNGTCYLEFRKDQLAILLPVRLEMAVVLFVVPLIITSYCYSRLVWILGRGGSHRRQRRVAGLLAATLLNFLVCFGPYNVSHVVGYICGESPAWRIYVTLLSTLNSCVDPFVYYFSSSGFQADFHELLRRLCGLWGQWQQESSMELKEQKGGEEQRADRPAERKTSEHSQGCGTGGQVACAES
pEC50: −log10 of the molar value.
Parameter: pEC50. Scope: all listed entries.

// solved cases for pEC50 follow
CC1=C(C(=O)Nc2cc(Cl)ccc2Cl)C(CCn2cccn2)C2=C(CCCC2=O)N1 (centres unmarked): < 5.00
CC1=C(C(=O)Nc2ccccc2C)[C@H](c2ccco2)C2=C(CCCC2=O)N1 [(R)-1]: 6.53
CC1=C(C(=O)Nc2ccccc2C)C(/C=C/c2ccccc2)C2=C(CCCC2=O)N1 (centres unmarked): < 5.00
CC1=C(C(=O)Nc2ccccc2C)[C@@H](c2ccco2)C2=C(CCCC2=O)N1 [(S)-1]: 5.70
CC1=C(C(=O)Nc2ccccc2C)C(CC(C)C)C(C(=O)c2ccccc2)=C(C)N1 (centres unmarked): < 4.00

query: // query pEC50 value for entry CC1=C(C(=O)Nc2ccccc2I)C(CC(C)C)C2=C(CCCC2=O)N1 (centres unmarked)
result: 5.57

query: Next: COC(=O)C1=C(C)NC(C)=C(C(=O)Nc2ccccc2C)C1CC(C)C (centres unmarked)
result: < 4.00

query: Next: CC1=C(C(=O)Nc2ccccc2C)C(CCc2ccccc2)C2=C(CCCC2=O)N1 (centres unmarked)
result: < 5.00
